# systemUnderTest: human FABP4 (Homo sapiens)
# Sequence (P15090 whole entry): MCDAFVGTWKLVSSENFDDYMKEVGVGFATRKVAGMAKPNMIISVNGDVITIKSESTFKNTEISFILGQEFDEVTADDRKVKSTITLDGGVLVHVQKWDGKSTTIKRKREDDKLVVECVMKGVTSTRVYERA
# experimentDescription: FABP4 Inhibitor/Ligand Screening Assay Kit, cell-free ligand displacement fluorescence-labeled probe assay
# Assay type: binding
# measurementParameters: read-out: % FABP4 inhibition (10 μM)
measurementName: inhibition at 10 µM (%)
Output spec: scalar in %, unitless text.

[[record]]
compound = "Cc1nc2n(c(=O)c1CCN1CCC(c3noc4cc(F)ccc34)CC1)CCCC2 [Risperidone]"
measurementname = "inhibition at 10 µM"
numericresult = 1.64

[[record]]
compound = "O=c1[nH]c2ccccc2n1C1CCN(CCCC(c2ccc(F)cc2)c2ccc(F)cc2)CC1 [Pimozide]"
measurementname = "inhibition at 10 µM"
numericresult = 47

[[record]]
compound = "C[C@H]1COc2c(N3CCN(C)CC3)c(F)cc3c(=O)c(C(=O)O)cn1c23 [Levofloxacin]"
measurementname = "inhibition at 10 µM"
numericresult = 70

[[record]]
compound = "Cc1nc2n(c(=O)c1CCN1CCC(c3noc4cc(F)ccc34)CC1)CCCC2O (centres unmarked) [Paliperidone]"
measurementname = "inhibition at 10 µM"
numericresult = 5.12


INPUT: May I ask what inhibition at 10 µM has been recorded for N[C@@H]1[C@H]2CN(c3nc4c(cc3F)c(=O)c(C(=O)O)cn4-c3ccc(F)cc3F)C[C@@H]12 [Trovafloxacin] ?
OUTPUT: 57.5
